The reported numbers originate from patent US9169254B2.

- assay.system: human PTH1 receptor (Homo sapiens)
- method.description: In vitro cAMP signal activity in HKRK-B7 cells (LLC-PK1 cells overexpressing the human PTH1 receptor)
- Format: cell-based
- conditions.used: HKRK-B7 cells; compound at 1×10^−3 M; cAMP produced as percentage of that produced by hPTH(1-34) at 100 nM
measured.property: cAMP production activity (%)
The number alone won't do; follow it with the unit.

molecule | cAMP production activity (%)
CC(C)(C)OC(=O)N1CCCC(C2=NC3(CCN(S(=O)(=O)CCc4cccc5ccccc45)CC3)C(=O)N2)C1 (stereo not shown) [Compound 38] | 52%
Cc1cc(N(C)C(N)=O)cc(C)c1CCS(=O)(=O)N1CCC2(CC1)N=C(CCCCCCCC(F)(F)C(F)(F)F)NC2=O [Compound 1302] | 95%
Cc1cc(N2CCOCC2=O)cc(C)c1CCS(=O)(=O)N1CCC2(CC1)N=C(C1CCC(CCC(F)(F)F)CC1)NC2=O (stereo not shown) [Compound 764] | 124%

Let us move to another entry and its cAMP production activity (%).
Prompt line: Consider the molecule Cc1cc(N(C)C(N)=O)cc(C)c1/C=C/S(=O)(=O)N1CCC2(CC1)N=C(CCCCCCCCCCCC(=O)O)NC2=O [Compound 1131] tested on human PTH1 receptor (Homo sapiens); state its cAMP production activity (%).
Response line: 96%

---

Each item that follows carries a reported cAMP production activity (%).
- assay.system: human PTH1 receptor (Homo sapiens)
- method.description: In vitro cAMP signal activity in HKRK-B7 cells (LLC-PK1 cells overexpressing the human PTH1 receptor)
- Format: cell-based
- conditions.used: HKRK-B7 cells; compound at 1×10^−3 M; cAMP produced as percentage of that produced by hPTH(1-34) at 100 nM
Output spec: scalar in %, unitless text.

molecule | assay.system | units.label | cAMP production activity (%)
Cc1cc(C(=O)N2CCS(=O)(=O)CC2)ccc1CCS(=O)(=O)N1CCC2(CC1)N=C(C1CCCCC1)NC2=O | human PTH1 receptor (Homo sapiens) | % | 45
CC(=O)Nc1ccc(CCS(=O)(=O)N2CCC3(CC2)N=C(C2CCC(CC(C)F)CC2)NC3=O)c(C)c1 (stereo not shown) | human PTH1 receptor (Homo sapiens) | % | 74
CC(=O)N(C)c1cc(C)c(CCS(=O)(=O)N2CCC3(CC2)N=C(CCCCCCC(F)(F)F)NC3=O)c(C)c1 | human PTH1 receptor (Homo sapiens) | % | 86

Prompt line: Tell us which cAMP production activity (%) value is on record for Cc1cc(N2OCCC2=O)ccc1/C=C/S(=O)(=O)N1CCC2(CC1)N=C(C1CCC(C)CC1)NC2=O (stereo not shown)
Response line: 25

Prompt line: Give cAMP production activity (%) for Cc1cc(C(=O)N2CCC(O)(CF)CC2)cc(C)c1/C=C/S(=O)(=O)N1CCC2(CC1)N=C(C1CCC(C)CC1)NC2=O (stereo not shown)
Response line: 86

Prompt line: // Input: `COC(=O)CNc1ccc(/C=C/S(=O)(=O)N2CCC3(CC2)N=C(C2CCCCC2)NC3=O)c(C(F)(F)F)c1` . Output its cAMP production activity (%) only.
Response line: 50

Prompt line: Please list cAMP production activity (%) recorded for the molecule `CC(=O)N(C)c1cc(C)c(/C=C/S(=O)(=O)N2CCC3(CC2)N=C(c2cccc(OC(F)(F)F)c2)NC3=O)c(C)c1`
Response line: 80

---

- assay.system: UniProtKB Q03431
- Sequence (Q03431 27-593): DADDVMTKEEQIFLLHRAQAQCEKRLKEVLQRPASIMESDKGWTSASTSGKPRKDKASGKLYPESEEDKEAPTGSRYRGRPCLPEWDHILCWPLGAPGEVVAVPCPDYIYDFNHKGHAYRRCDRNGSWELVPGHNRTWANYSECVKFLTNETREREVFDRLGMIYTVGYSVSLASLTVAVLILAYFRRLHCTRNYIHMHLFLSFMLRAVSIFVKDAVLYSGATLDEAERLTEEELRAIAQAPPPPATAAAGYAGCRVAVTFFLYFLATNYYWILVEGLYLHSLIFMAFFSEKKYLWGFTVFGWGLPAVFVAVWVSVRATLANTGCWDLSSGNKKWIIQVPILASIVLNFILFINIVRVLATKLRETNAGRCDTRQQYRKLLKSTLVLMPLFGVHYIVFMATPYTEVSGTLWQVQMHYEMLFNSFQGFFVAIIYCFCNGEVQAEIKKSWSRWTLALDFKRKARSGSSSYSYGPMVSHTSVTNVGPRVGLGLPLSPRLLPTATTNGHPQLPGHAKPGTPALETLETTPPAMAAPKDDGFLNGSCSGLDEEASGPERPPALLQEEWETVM
- method.description: In vitro cAMP signal activity in HKRK-B7 cells (LLC-PK1 cells overexpressing the human PTH1 receptor)
- Format: cell-based
- conditions.used: HKRK-B7 cells; compound at 1×10^−3 M; cAMP produced as percentage of that produced by hPTH(1-34) at 100 nM
Entries annotated with measured cAMP production activity (%)
A number alone suffices; assume %.

The following molecules have reported results that may help.
molecule | cAMP production activity (%)
Cc1cc(CN(C)C(N)=O)cc(C)c1/C=C/S(=O)(=O)N1CCC2(CC1)N=C(C1CCC(C)CC1)NC2=O (stereo not shown) | 49
O=C1NC(C2CCCCC2)=NC12CCN(S(=O)(=O)/C=C/c1cccc3c1ccn3C[C@H](O)CO)CC2 | 57
Cc1cc(C(=O)N2CCC(CO)CC2)cc(C)c1/C=C/S(=O)(=O)N1CCC2(CC1)N=C(c1ccc(F)c(OC(F)(F)F)c1)NC2=O | 84
COC(=O)c1ccccc1S(=O)(=O)N1CCC2(CC1)N=C(C1CCCCC1)NC2=O | 38
O=C1NC(C2CCCCC2)=NC12CCN(S(=O)(=O)CCc1cccc3c1ccn3CCC(O)CO)CC2 (stereo not shown) | 61

Prompt line: Dear colleague, please send me the reported cAMP production activity (%) for `COc1cccc(C2=NC3(CCN(S(=O)(=O)CCc4ccc(C(=O)N(C)C)cc4C)CC3)C(=O)N2)c1` when you can.
Response line: 71

Prompt line: Provide only the value of recorded cAMP production activity (%) for `Cc1cc(N(C2CCNCC2)S(C)(=O)=O)cc(C)c1/C=C/S(=O)(=O)N1CCC2(CC1)N=C(c1cccc(OC(F)(F)F)c1)NC2=O`
Response line: 27

---

- assay.system: human PTH1 receptor (Homo sapiens)
- Sequence (Q03431 27-593): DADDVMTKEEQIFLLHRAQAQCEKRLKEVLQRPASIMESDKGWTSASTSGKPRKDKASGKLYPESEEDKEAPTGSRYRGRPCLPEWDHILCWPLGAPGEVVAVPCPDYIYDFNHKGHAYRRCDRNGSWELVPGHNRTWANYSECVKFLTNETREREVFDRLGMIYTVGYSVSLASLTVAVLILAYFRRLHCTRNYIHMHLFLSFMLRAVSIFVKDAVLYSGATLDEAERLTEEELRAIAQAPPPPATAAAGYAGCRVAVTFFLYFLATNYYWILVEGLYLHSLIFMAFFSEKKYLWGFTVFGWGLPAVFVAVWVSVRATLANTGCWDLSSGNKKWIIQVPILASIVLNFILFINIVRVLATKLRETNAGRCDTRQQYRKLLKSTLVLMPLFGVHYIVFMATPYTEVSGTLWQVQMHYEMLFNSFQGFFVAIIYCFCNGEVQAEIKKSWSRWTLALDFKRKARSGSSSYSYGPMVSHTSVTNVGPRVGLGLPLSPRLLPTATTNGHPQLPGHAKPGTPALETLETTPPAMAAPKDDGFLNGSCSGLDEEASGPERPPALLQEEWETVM
- method.description: In vitro cAMP signal activity in HKRK-B7 cells (LLC-PK1 cells overexpressing the human PTH1 receptor)
- Type: cell-based
- conditions.used: HKRK-B7 cells; compound at 1×10^−3 M; cAMP produced as percentage of that produced by hPTH(1-34) at 100 nM
rule met means recorded cAMP production activity (%) is 80% or above; rule not met means it is below 80%.

// below: answered compounds
compound | assay.system | class.label
Cc1cc(S(=O)(=O)NC2CCN(Cc3ccccc3)CC2)ccc1CCS(=O)(=O)N1CCC2(CC1)N=C(c1cccc(OC(F)(F)F)c1)NC2=O | human PTH1 receptor (Homo sapiens) | rule not met
Cc1cc(N2CCNCC2=O)ccc1/C=C/S(=O)(=O)N1CCC2(CC1)N=C(C1CCC(C)CC1)NC2=O (centres unmarked) | human PTH1 receptor (Homo sapiens) | rule not met
CCC[C@@H]1CCC[C@H](C2=NC3(CCN(S(=O)(=O)CCc4c(C)cc(N(C)C(N)=O)cc4C)CC3)C(=O)N2)C1 | human PTH1 receptor (Homo sapiens) | rule met
Cc1cc(C(=O)N2CCC(C)(O)CC2)cc(C)c1CCS(=O)(=O)N1CCC2(CC1)N=C(C1CCC(C)CC1)NC2=O (centres unmarked) | human PTH1 receptor (Homo sapiens) | rule met
Cc1cc(C(=O)N2CC(F)C2)ccc1CCS(=O)(=O)N1CCC2(CC1)N=C(c1cccc(C(F)(F)F)c1)NC2=O | human PTH1 receptor (Homo sapiens) | rule not met
Cc1cc(N(C)C(N)=O)cc(C)c1CCS(=O)(=O)N1CCC2(CC1)N=C(CCCCCCCCCCCC(=O)O)NC2=O | human PTH1 receptor (Homo sapiens) | rule not met

Prompt line: Has `Cc1cc(N2C(=O)CC[C@@H]2CO)cc(C)c1/C=C/S(=O)(=O)N1CCC2(CC1)N=C(c1cccc(OC(F)(F)F)c1)NC2=O` a recorded cAMP production activity (%) greater than or equal to 80%?
Response line: rule met

Prompt line: Form field: cAMP production activity (%) at least 80%? Entry: `Cc1cc(C(=O)N(C)C)ccc1CCS(=O)(=O)N1CCC2(CC1)N=C(c1cccc3c1OC(F)(F)O3)NC2=O`
Response line: rule met
